Value source: ChEMBL document CHEMBL5505997

assay: Cytotoxicity against human Huh-7 cells assessed as reduction in cell viability; format: toxicity, cell-based; details: Huh-7 cells
READOUT LABEL: CC50

Request: Report CC50 for `CC(C)(C)[C@H](NC(=O)C(F)(F)F)C(=O)N1C[C@H]2[C@@H]([C@H]1C(=O)N[C@H](C#N)C[C@@H]1CCNC1=O)C2(C)C`
Response: > 100 µM

----------
system: SARS-CoV-2; assay: Antiviral activity against SARS-CoV-2 infected in Vero cells assessed as reduction in viral yield measured after 48 hrs by qRT-PCR analysis; assay type: functional, organism-based; details: Severe acute respiratory syndrome coronavirus 2, Vero, 48 h
Give measured EC50 for each item. Keep answers brief.
Respond with the bare value in µM.

Request: Supply recorded EC50 for Cc1cc(C(=O)N[C@@H](Cc2cccc3ccccc23)C(=O)N[C@@H](CC(C)C)C(=O)N[C@@H](C[C@@H]2CCCNC2=O)C(O)S(=O)(=O)[O-])no1.[Na+] (stereo partly specified) here.
Response: 4.5

Request: Consider the molecule `Cc1cc(C(=O)N[C@@H](Cc2cccc3ccccc23)C(=O)N[C@@H](CC(C)C)C(=O)N[C@H](C=O)C[C@@H]2CCCNC2=O)no1` and give its recorded EC50.
Response: 4.6

Request: # return recorded EC50 for input `CC(C)C[C@H](NC(=O)[C@H](Cc1cccc2ccccc12)NC(=O)c1cc(C(F)(F)F)on1)C(=O)N[C@H](C=O)C[C@@H]1CCCNC1=O`
Response: 6.1

Request: For `CC(C)C[C@H](NC(=O)[C@H](Cc1ccc(F)cc1)NC(=O)OCc1ccccc1)C(=O)N[C@H](C=O)C[C@@H]1CCCNC1=O` , write its EC50.
Response: 6.7

----------
test system: CCRF-CEM; assay: Cytotoxicity against human CEM cells assessed as reduction in cell viability; assay type: toxicity, cell-based; details: ccrf-cem
For each entry below, report its CC50 value.
Write it as a number; the unit µM goes unstated.

Request: Answer with the recorded CC50 of `CC(C)C[C@H](NC(=O)[C@H](Cc1cccc2ccccc12)NC(=O)c1cc(C(F)(F)F)on1)C(=O)N[C@H](C=O)C[C@@H]1CCCNC1=O` only.
Response: 20.3

Request: Consider the compound `CC(C)C[C@H](NC(=O)[C@H](Cc1cccc2ccccc12)NC(=O)OCc1ccccc1)C(=O)N[C@H](C=O)C[C@@H]1CCCNC1=O` and give its recorded CC50.
Response: 24.3

Request: Provide measured CC50 value, entry: `CC(C)C[C@H](NC(=O)[C@H](Cc1cccc2ccccc12)NC(=O)OCc1ccccc1)C(=O)N[C@H](C=O)Cn1ccnn1`
Response: 25.3

Request: Fill in reported CC50 for this entry: `Cc1cc(C(=O)N[C@@H](Cc2cccc3ccccc23)C(=O)N[C@@H](CC(C)C)C(=O)N[C@H](C=O)C[C@@H]2CCCNC2=O)no1`
Response: 13.9

Request: Give CC50 for the following compound: `CC(C)C[C@H](NC(=O)[C@H](Cc1cccc2ccccc12)NC(=O)OCc1ccccc1)C(=O)N[C@H](C=O)CNC(=O)N1CCC1`
Response: 43.6

Request: Give reported CC50 value for `Cc1ccsc1C(=O)N[C@@H](Cc1cccc2ccccc12)C(=O)N[C@@H](CC(C)C)C(=O)N[C@H](C=O)C[C@@H]1CCCNC1=O`
Response: 16.3

Request: State, in one line, measured CC50 of `CC(C)C[C@H](NC(=O)[C@H](Cc1cccc2ccccc12)NC(=O)OCc1ccccc1)C(=O)N[C@H](/C=C(\C#N)C(N)=O)C[C@@H]1CCCNC1=O`
Response: 29

Request: Give the reported value of CC50 for this record: Cc1cc(C(=O)N[C@@H](Cc2cccc3ccccc23)C(=O)N[C@@H](CC(C)C)C(=O)N[C@@H](C[C@@H]2CCCNC2=O)C(O)S(=O)(=O)[O-])no1.[Na+] (some centres undefined)
Response: 24.3

Request: Note down CC50 recorded for `CCC(CC)COC(=O)[C@H](C)N[P@](=O)(OC[C@H]1O[C@@](C#N)(c2ccc3c(N)ncnn23)[C@H](O)[C@@H]1O)Oc1ccccc1`
Response: 11.2

Request: State its CC50 for this compound: `CCOC(=O)/C=C/[C@H](C[C@@H]1CCCNC1=O)NC(=O)[C@H](CC(C)C)NC(=O)[C@H](Cc1cccc2ccccc12)NC(=O)c1cc(C)on1`
Response: 33.4

----------
test system: Huh-7; experiment: Cytotoxicity against human Huh-7 cells assessed as reduction in cell viability; type: toxicity, cell-based; settings: huh-7
READOUT LABEL: CC50 (µM)
Write the answer as a number in µM, unit excluded.

Request: Give CC50 for the following compound: `CC(C)C[C@H](NC(=O)[C@H](Cc1cccc2ccccc12)NC(=O)OCc1ccccc1)C(=O)N[C@H](/C=C(\C#N)C(N)=O)C[C@@H]1CCCNC1=O`
Response: 29

Request: For the compound `Cc1ccsc1C(=O)N[C@@H](Cc1cccc2ccccc12)C(=O)N[C@@H](CC(C)C)C(=O)N[C@H](C=O)C[C@@H]1CCCNC1=O` , give its measured CC50 value.
Response: 35.1

Request: Determine its reported CC50: `CCOC(=O)/C=C/[C@H](C[C@@H]1CCCNC1=O)NC(=O)[C@H](CC(C)C)NC(=O)[C@H](Cc1cccc2ccccc12)NC(=O)c1cc(C)on1`
Response: 51.4

Request: Look up CC50 of `CCC(CC)COC(=O)[C@H](C)N[P@](=O)(OC[C@H]1O[C@@](C#N)(c2ccc3c(N)ncnn23)[C@H](O)[C@@H]1O)Oc1ccccc1` and report it.
Response: 1.4

Request: Read the entry `CC(C)C[C@H](NC(=O)[C@H](Cc1cccc2ccccc12)NC(=O)OCc1ccccc1)C(=O)N[C@H](C=O)CNC(=O)N1CCC1` and write its reported CC50.
Response: 43.6

----------
Exercise: for every item that follows, state its recorded EC50.
tested on: Human coronavirus OC43; test: Antiviral activity against Human coronavirus OC43 infected in Vero cells assessed as reduction in viral yield preincubated with virus for 1 hr followed by washout and compound treatment and measured after 3 days by qRT-PCR analysis; assay type: functional, organism-based; conditions: Betacoronavirus 1, Vero
Numbers only here, please. The scale is nM.

Request: Send back Human coronavirus OC43 EC50 of `CC(C)C[C@H](NC(=O)[C@H](Cc1ccc(F)cc1)NC(=O)OCc1ccccc1)C(=O)N[C@H](C=O)C[C@@H]1CCCNC1=O` only.
Response: 800

Request: # return EC50 for `CC(C)(C)[C@H](NC(=O)C(F)(F)F)C(=O)N1C[C@H]2[C@@H]([C@H]1C(=O)N[C@H](C#N)C[C@@H]1CCNC1=O)C2(C)C` , test system: Human coronavirus OC43
Response: 200

Request: Please report the measured EC50 for Cc1cc(C(=O)N[C@@H](Cc2cccc3ccccc23)C(=O)N[C@@H](CC(C)C)C(=O)N[C@@H](C[C@@H]2CCCNC2=O)C(O)C(=O)NC2CC2)no1 (stereo partly specified) tested on Human coronavirus OC43.
Response: 36700

Request: Tell me EC50 of `CC(C)C[C@H](NC(=O)[C@H](Cc1cccc2ccccc12)NC(=O)OCc1ccccc1)C(=O)N[C@H](C#N)C[C@@H]1CCCNC1=O` when tested on Human coronavirus OC43.
Response: 700

Request: Jot down EC50 (Human coronavirus OC43) of `CC(C)C[C@H](NC(=O)[C@H](Cc1ccc(O)cc1)NC(=O)OCc1ccccc1)C(=O)N[C@H](C=O)C[C@@H]1CCCNC1=O` .
Response: 8500

Request: Tell me its EC50 on Human coronavirus OC43: `CC(C)C[C@H](NC(=O)[C@H](Cc1cccc2ccccc12)NC(=O)OCc1ccccc1)C(=O)N[C@H](C=O)C[C@@H]1CCCNC1=O`
Response: 700

----------
Would you kindly list CC50 for each of these compounds?
experiment: Cytotoxicity against human Calu-3 cells assessed as reduction in cell viability; assay type: toxicity, cell-based; conditions: Calu-3 cells

Request: Using known records, supply CC50 for `CCC(CC)COC(=O)[C@H](C)N[P@](=O)(OC[C@H]1O[C@@](C#N)(c2ccc3c(N)ncnn23)[C@H](O)[C@@H]1O)Oc1ccccc1`
Response: > 100 µM

Request: Indicate the recorded CC50 value for this compound: `CC(C)(C)[C@H](NC(=O)C(F)(F)F)C(=O)N1C[C@H]2[C@@H]([C@H]1C(=O)N[C@H](C#N)C[C@@H]1CCNC1=O)C2(C)C`
Response: > 100 µM

----------
test system: Huh-7; assay: Cytotoxicity against human Huh-7 cells assessed as reduction in cell viability; assay type: toxicity, cell-based; conditions: huh-7
READOUT LABEL: CC50

Request: Tell me measured CC50 for `CC(C)C[C@H](NC(=O)[C@H](Cc1ccc(O)cc1)NC(=O)OCc1ccccc1)C(=O)N[C@H](C=O)C[C@@H]1CCCNC1=O` please.
Response: > 100 µM

Request: # return recorded CC50 for input `CC(C)C[C@H](NC(=O)[C@H](Cc1ccc(F)cc1)NC(=O)OCc1ccccc1)C(=O)N[C@H](C=O)C[C@@H]1CCCNC1=O`
Response: > 100 µM

Request: Please give the documented CC50 of `CC(C)C[C@H](NC(=O)[C@H](Cc1cccc2ccccc12)NC(=O)OCc1ccccc1)C(=O)N[C@H](C#N)C[C@@H]1CCCNC1=O`
Response: > 100 µM
